Please provide measured recombinant UMI read abundance (log10) for the entries that follow.
Test: recombinant UMI read abundance after kanamycin selection (control-corrected) (log10(CPM+1)); higher = more efficient recombination; extreme values may be limits of the assay; sequences stand for … in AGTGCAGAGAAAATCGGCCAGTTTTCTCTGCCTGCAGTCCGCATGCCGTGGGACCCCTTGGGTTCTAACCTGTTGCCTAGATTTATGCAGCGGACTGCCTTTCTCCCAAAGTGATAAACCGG…AGGTTGGTTTCACT; site = the 11-nt donor

Consider the following illustrative entries.
>  <recordSequence>
GAGGATGCATGGACCGGTTTTCCCGGTAATCCGTATTTGTA (site GAGGATGCTTA)

>  <result>
2.8

$$$$
>  <recordSequence>
AGAACGGCATGGACCGGTTTTCCCGGTAATCCGTATTTGCT (site AGAAAGGCTAG)

>  <result>
1.08

$$$$

Value sought for every listed sequence: recombinant UMI read abundance (log10).
1. TCAGGGACATGGACCGGTTTTCCCGGTAATCCGTATTTGCG (site TCAGTGACTCG)
2. CTAGGACCATGGACCGGTTTTCCCGGTAATCCGTATTTGGG (site CAAGGACCTCC)

[A]
1: 0.0229; 2: 0.0215

# batch size: 5; output recombinant UMI read abundance (log10) per entry
1. TCAGCGACATGGACCGGTTTTCCCGGTAATCCGTATTTGCG (site TCAGCGACTCG)
2. ACACATCCATGGACCGGTTTTCCCGGTAATCCGTATTTGAA (site ACACATCCTCT)
3. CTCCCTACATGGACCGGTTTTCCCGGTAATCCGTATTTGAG (site CCCCCTACTCT)
4. CTCGCTACATGGACCGGTTTTCCCGGTAATCCGTATTTGAT (site CTCGCTACTAT)
5. GATTGGCCATGGACCGGTTTTCCCGGTAATCCGTATTTGCG (site GATTGGCCTCG)

[A]
[1.37, 0, 0.0077, 1.7, 0.115]

###

Assay: recombinant UMI read abundance after kanamycin selection (control-corrected) (log10(CPM+1)); higher = more efficient recombination; extreme values may be limits of the assay; sequences stand for … in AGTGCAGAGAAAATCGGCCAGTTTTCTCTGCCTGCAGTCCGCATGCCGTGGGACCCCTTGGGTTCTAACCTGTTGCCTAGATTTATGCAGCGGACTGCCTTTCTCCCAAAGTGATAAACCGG…AGGTTGGTTTCACT; site = the 11-nt donor
Parameter threshold = 0.01. Response is Y when recombinant UMI read abundance (log10) meets or exceeds it, else N.

Worked examples, 8 sequences total:
>  <recordSequence>
TCATACTCATGGACCGGTTTTCCCGGTAATCCGTATTTGTA (site TCATACTCTTA)

>  <groupLabel>
Y

$$$$
>  <recordSequence>
CGGATATCATGGACCGGTTTTCCCGGTAATCCGTATTTGCT (site CGGAGATCTAG)

>  <groupLabel>
N

$$$$
>  <recordSequence>
GATAGAACATGGACCGGTTTTCCCGGTAATCCGTATTTGGC (site GCTAGAACTGC)

>  <groupLabel>
N

$$$$
>  <recordSequence>
TGATCCCCATGGACCGGTTTTCCCGGTAATCCGTATTTGTA (site TGGTCCCCTTA)

>  <groupLabel>
N

$$$$
>  <recordSequence>
GCGACGCCATGGACCGGTTTTCCCGGTAATCCGTATTTGGG (site GCGACGCCTCC)

>  <groupLabel>
N

$$$$
>  <recordSequence>
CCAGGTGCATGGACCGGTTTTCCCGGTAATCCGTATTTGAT (site CCAGCTGCTAT)

>  <groupLabel>
N

$$$$
>  <recordSequence>
TGAATACCATGGACCGGTTTTCCCGGTAATCCGTATTTGTG (site TGAATACCTCA)

>  <groupLabel>
N

$$$$
>  <recordSequence>
TTCAACTCATGGACCGGTTTTCCCGGTAATCCGTATTTGAC (site TTCAACTCTGT)

>  <groupLabel>
N

$$$$

Pending sequence:
[Q] Check if recombinant UMI read abundance (log10) >= 0.01 (inclusive). Item: TCTACTGCATGGACCGGTTTTCCCGGTAATCCGTATTTGCC (site ACTACTGCTGG)
[A] N

###

Assay: recombinant UMI read abundance after kanamycin selection (control-corrected) (log10(CPM+1)); higher = more efficient recombination; extreme values may be limits of the assay; sequences stand for … in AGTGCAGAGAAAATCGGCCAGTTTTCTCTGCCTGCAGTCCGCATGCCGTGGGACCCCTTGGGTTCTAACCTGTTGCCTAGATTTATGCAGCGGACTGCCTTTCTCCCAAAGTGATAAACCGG…AGGTTGGTTTCACT; site = the 11-nt donor
measure: recombinant UMI read abundance (log10)

Worked set:
>  <recordSequence>
GATACGTCATGGACCGGTTTTCCCGGTAATCCGTATTTGGT (site GATACGTCTAC)

>  <recombinant UMI read abundance (log10)>
1.36

$$$$
>  <recordSequence>
AAGAAGACATGGACCGGTTTTCCCGGTAATCCGTATTTGAA (site AGGAAGACTTG)

>  <recombinant UMI read abundance (log10)>
0

$$$$
>  <recordSequence>
TATCCGTCATGGACCGGTTTTCCCGGTAATCCGTATTTGAA (site TATCCGTCTTT)

>  <recombinant UMI read abundance (log10)>
0.0803

$$$$

Hi there! I need recombinant UMI read abundance (log10) for each item below, if you can.
1. TGATCCCCATGGACCGGTTTTCCCGGTAATCCGTATTTGTA (site TGATCCCCTTA)
2. ATAACGCCATGGACCGGTTTTCCCGGTAATCCGTATTTGAC (site ATAACGCCTGT)

[A]
1. 0.674
2. 0.696

###

Assay: recombinant UMI read abundance after kanamycin selection (control-corrected) (log10(CPM+1)); higher = more efficient recombination; extreme values may be limits of the assay; sequences stand for … in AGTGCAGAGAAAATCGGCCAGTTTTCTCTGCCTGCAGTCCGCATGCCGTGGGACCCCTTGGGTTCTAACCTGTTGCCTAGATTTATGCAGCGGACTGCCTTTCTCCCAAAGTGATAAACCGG…AGGTTGGTTTCACT; site = the 11-nt donor
measure: recombinant UMI read abundance (log10)
Answers are plain numbers.

// below: answered sequences
>  <recordSequence>
CCCCACACATGGACCGGTTTTCCCGGTAATCCGTATTTGGA (site CCCCACACTTA)

>  <measuredNumber>
0.369

$$$$
>  <recordSequence>
ATAACAACATGGACCGGTTTTCCCGGTAATCCGTATTTGAA (site ATAACAACTTT)

>  <measuredNumber>
1.46

$$$$
>  <recordSequence>
GTAGGTACATGGACCGGTTTTCCCGGTAATCCGTATTTGAT (site GTAGGTACTCT)

>  <measuredNumber>
0.18

$$$$

Dear reader, for each entry below, please note its recombinant UMI read abundance (log10).
1. GGGTTCCCATGGACCGGTTTTCCCGGTAATCCGTATTTGTC (site GGGTTCCCTGA)
2. GCCCCGCCATGGACCGGTTTTCCCGGTAATCCGTATTTGTA (site GCCTCGCCTTA)

[A]
1: 0; 2: 0.00782

###

Test: recombinant barcode read abundance after kanamycin selection (control-corrected) (log10(CPM+1)); higher = more efficient recombination; sequences stand for … in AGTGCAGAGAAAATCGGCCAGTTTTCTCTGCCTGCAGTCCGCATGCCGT…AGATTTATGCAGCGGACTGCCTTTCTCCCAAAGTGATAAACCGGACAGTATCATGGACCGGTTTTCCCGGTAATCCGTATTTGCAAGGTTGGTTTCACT; site = the 11-nt target
Param threshold (0.4) applies to recombinant barcode read abundance (log10); output rule met when value >= threshold, rule not met when value < threshold.

Examples with answers:
>  <recordSequence>
TAAAGGGCTTGGGTTCTAACCTGTTGCCT (site TAACGGGCTCG)

>  <groupLabel>
rule not met

$$$$
>  <recordSequence>
ACCTTGTCTTGGGTTCTAACCTGTTGCTA (site GCCATGTCTTA)

>  <groupLabel>
rule not met

$$$$
>  <recordSequence>
GTATCACCTTGGGTTCTAACCTGTTGCCT (site GTATCACCTAG)

>  <groupLabel>
rule met

$$$$

[Q] Test whether the sequence TTGTGAGCTTGGGTTCTAACCTGTTGCCA (site TTGTGAGCTTG) records recombinant barcode read abundance (log10) of 0.4 or higher.
[A] rule met

[Q] Entry to check: TCTTGTTCTTGGGTTCTAACCTGTTGCCT (site GCTTGTTCTAG)
[A] rule not met

###

Assign recombinant UMI read abundance (log10) to each entry below.
Assay: recombinant UMI read abundance after kanamycin selection (control-corrected) (log10(CPM+1)); higher = more efficient recombination; extreme values may be limits of the assay; sequences stand for … in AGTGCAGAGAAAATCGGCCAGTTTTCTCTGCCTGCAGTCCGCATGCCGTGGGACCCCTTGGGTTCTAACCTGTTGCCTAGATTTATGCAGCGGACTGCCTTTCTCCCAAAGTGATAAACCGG…AGGTTGGTTTCACT; site = the 11-nt donor
Numbers only.

>  <recordSequence>
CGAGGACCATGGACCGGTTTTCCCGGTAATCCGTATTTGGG (site CGATGACCTCC)

>  <recombinant UMI read abundance (log10)>
0.0104

$$$$

// batch mode: one recombinant UMI read abundance (log10) value per listed entry
1. ATGTACACATGGACCGGTTTTCCCGGTAATCCGTATTTGAA (site ATGTACACTTT)
2. CAGCACGCATGGACCGGTTTTCCCGGTAATCCGTATTTGGG (site GAGCACGCTCC)
3. CATCGTTCATGGACCGGTTTTCCCGGTAATCCGTATTTGCA (site CATCGTTCTTG)
4. CTCCATACATGGACCGGTTTTCCCGGTAATCCGTATTTGAG (site CTCCGTACTCT)

[A]
1. 1.82
2. 0.0111
3. 2.25
4. 0.0224
